%Inh: recorded values
System: EPHB6;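 further: KINOMEscan kinase panel screen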
assay.context: concentration: 1 μM, replicates: in singlicate; n = 1
Express your answer in %, writing the number without its unit.

Take a look at these entries with their results.
compound: Clc1cc(Cl)cc(Nc2ccnc(Nc3cc(Cl)cc(Cl)c3)n2)c1
display.unit: %
%Inh: 19

compound: Cc1cc(NCC(c2ccccc2)c2ccccc2)nc(NCc2ccc(C(F)(F)F)cc2)n1
display.unit: %
%Inh: 8

compound: COc1cc2nccc(Nc3ccc(NC(=O)c4ccc(C)cc4)c(O)c3)c2cc1OC.Cl
display.unit: %
%Inh: 19

compound: Cc1cc(N2Cc3ccccc3C2)nc(Nc2ccc(S(=O)(=O)N3CCOCC3)cc2)n1.Cl
display.unit: %
%Inh: 10

compound: Cc1cccc(-c2cc(Nc3ccncc3)c3ccccc3n2)n1
display.unit: %
%Inh: 25

Response field %Inh (EPHB6) for item CCCc1ccc(S(=O)(=O)NC2CCN(c3ccnc(Nc4ccc(F)cc4)n3)C2)cc1 (stereo not shown) : 2

Hey, EPHB6 data for "Cc1csc(-c2nc(Nc3ccncc3)c3ccccc3n2)n1" : %Inh came out at 28

The recorded %Inh with EPHB6 for "O=C(Nc1n[nH]c2nc(-c3nccs3)c(Br)cc12)C1CCCC1" was 46

Field %Inh (system: EPHB6) for entry "NC(=O)c1nnc2ccccc2c1N" = 9

Lab note: compound "CCn1c(-c2ccccn2)nc2cnccc21" tested on EPHB6; recorded %Inh was 0

Record "Cc1c(Cn2ccn3c(=O)cc(N4CCOCC4)nc23)cccc1C(F)(F)F" has EPHB6 %Inh equal to 0
